target: UniProtKB P06239
Sequence (P06239 whole entry): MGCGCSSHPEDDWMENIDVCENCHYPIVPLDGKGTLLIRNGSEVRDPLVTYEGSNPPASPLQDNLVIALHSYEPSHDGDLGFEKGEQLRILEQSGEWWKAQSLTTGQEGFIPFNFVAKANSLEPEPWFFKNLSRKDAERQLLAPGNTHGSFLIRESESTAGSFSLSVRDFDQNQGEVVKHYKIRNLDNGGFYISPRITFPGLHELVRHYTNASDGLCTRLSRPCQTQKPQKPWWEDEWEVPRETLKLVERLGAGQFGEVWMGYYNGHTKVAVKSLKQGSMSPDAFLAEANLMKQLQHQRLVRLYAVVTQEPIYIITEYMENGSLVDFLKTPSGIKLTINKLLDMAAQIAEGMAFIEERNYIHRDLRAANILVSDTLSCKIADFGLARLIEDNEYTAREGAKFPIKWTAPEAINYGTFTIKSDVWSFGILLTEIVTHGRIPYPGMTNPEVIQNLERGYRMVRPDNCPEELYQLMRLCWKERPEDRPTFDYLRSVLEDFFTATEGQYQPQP
MEASUREMENT_NAME: pIC50
Please express pIC50 as -log10 of the molar concentration.

Exercise: pIC50 for "NC(=O)C[C@H](NC(=O)C1(NC(=O)[C@@H](N)Cc2ccc(OP(=O)(O)O)c(N)c2)CCCCC1)C(N)=O" ?
Key: 8.20

====

target: Growth factor receptor-bound protein 2 (Homo sapiens); experiment: Inhibition of binding to Growth factor receptor bound protein 2 (Grb2) SH2 domain
Sequence (P62993 whole entry, the tested form may be a part): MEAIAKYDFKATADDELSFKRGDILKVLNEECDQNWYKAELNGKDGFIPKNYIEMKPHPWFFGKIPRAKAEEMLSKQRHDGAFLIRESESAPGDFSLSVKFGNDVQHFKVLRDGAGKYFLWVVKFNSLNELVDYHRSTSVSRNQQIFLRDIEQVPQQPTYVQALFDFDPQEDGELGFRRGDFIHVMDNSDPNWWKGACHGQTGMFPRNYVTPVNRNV
MEASUREMENT_NAME: IC50
Remember to put the unit after the number in your answer.

Exercise: IC50 for "NC(=O)C[C@H](NC(=O)C1(NC(=O)[C@@H](N)Cc2ccc(OP(=O)(O)O)c(N)c2)CCCCC1)C(N)=O" ?
Key: 4 nM
